# MEASUREMENT PROTOCOL: Pharmacokinetic profile in fasting humans, ranges over Studies .1 to .5
# Assay type: in vivo
# CONDITION CONTEXT: human, plasma, oral, 25 mg, multiple doses of 25.0 mg, read-out: AUCτ,ss
MEASURE NAME: AUC

Fill blank: measured AUC of the compound OC[C@H]1O[C@@H](c2ccc(Cl)c(Cc3ccc(O[C@H]4CCOC4)cc3)c2)[C@H](O)[C@@H](O)[C@@H]1O is ____. 2.79 to 7.64 µM·h

###

# MEASUREMENT PROTOCOL: Study .1: single dose study in healthy volunteers, pharmacokinetic parameters
# Type: in vivo, human
# CONDITION CONTEXT: human, plasma, oral, 25 mg, 25 mg single dose, Study .1, fasted; read-out: AUC0-inf Median
MEASURE NAME: AUC(0-inf) (µM·h)
// return numeric value only (unit: µM·h, not printed)

Entry OC[C@H]1O[C@@H](c2ccc(Cl)c(Cc3ccc(O[C@H]4CCOC4)cc3)c2)[C@H](O)[C@@H](O)[C@@H]1O : reported AUC(0-inf) = ? 3.98
